This collection of values is drawn from patent US8476265B2.

biological target: Adrenergic β2 (Homo sapiens, UniProt P07550); construct: Adherent H292 cells are removed from tissue culture flasks by treatment with Accutase™ cell detachment solution; endogenous in cells; host or cells: H292 cells; test: Adrenergic β2 mediated cAMP production in H292 cells (AlphaScreen), concentration response; format: cell-based; conditions: 60 min, 300 μM rolipram, read-out: β2 pEC50 (converted)
Sequence (P07550 whole entry): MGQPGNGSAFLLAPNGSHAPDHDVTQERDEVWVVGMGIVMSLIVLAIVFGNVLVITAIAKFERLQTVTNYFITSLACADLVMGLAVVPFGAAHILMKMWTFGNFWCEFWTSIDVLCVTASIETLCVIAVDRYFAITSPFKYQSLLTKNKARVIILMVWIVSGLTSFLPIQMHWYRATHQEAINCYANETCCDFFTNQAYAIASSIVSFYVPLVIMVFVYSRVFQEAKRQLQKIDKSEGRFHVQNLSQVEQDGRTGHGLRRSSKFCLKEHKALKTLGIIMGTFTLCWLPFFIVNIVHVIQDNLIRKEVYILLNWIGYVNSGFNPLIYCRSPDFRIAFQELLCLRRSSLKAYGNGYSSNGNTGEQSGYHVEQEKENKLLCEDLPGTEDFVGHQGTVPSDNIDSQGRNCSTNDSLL
QUANTITY_KIND: EC50 (nM)
Answer format: numeric, nM implied, no suffix.

Example cases with answers are listed next.
MOLECULE: CCCc1cc(C(=O)N2CCOC3(CCN(Cc4cccc(CCOCCC(=O)N(CCNCCc5ccc(O)c6c5OCC(=O)N6)C5CCCCC5)c4)CC3)C2)cs1 [Example 93]
REPORTED_VALUE: 251
//
MOLECULE: Cc1ccoc1C(=O)N1CCOC2(CCN(Cc3cccc(CCOCCC(=O)N(CCNCCc4ccc(O)c5c4OCC(=O)N5)C4CCCCC4)c3)CC2)C1 [Example 159]
REPORTED_VALUE: 79.4
//
MOLECULE: Cc1csc(C(=O)N2CCOC3(CCN(Cc4cccc(CCOCCC(=O)N(CCNCCc5ccc(O)c6c5OCC(=O)N6)C5CCCCC5)c4)CC3)C2)c1 [Example 138]
REPORTED_VALUE: 126

Field request: EC50 | item: CCN(CCNCCc1ccc(O)c2[nH]c(=O)sc12)C(=O)CCOCCc1cccc(OCCCN2CCC3(CC2)CN(C(=O)c2csc(C(C)C)n2)CCO3)c1 [Example 61, ditrifluoroacetate]
20

Entry to check: CC(C)c1nc(C(=O)N2CCOC3(CCN(Cc4cccc(CCOCCC(=O)N(CCNCCc5ccc(O)c6c5OCC(=O)N6)Cc5ccccc5)c4F)CC3)C2)cs1 [Example 8, ditrifluoroacetate]
39.8

Entry to check: CCCCN(CCCNCCc1ccc(O)c2c1OCC(=O)N2)C(=O)CCOCCc1cccc(CN2CCC3(CC2)CN(C(=O)c2csc(CC)n2)CCO3)c1Cl [Example 80]
63.1

Entry to check: CCN(CCNCCc1ccc(O)c2[nH]c(=O)sc12)C(=O)CCOCCc1cccc(CN2CCC3(CC2)CN(C(=O)c2csc(C(C)C)n2)CCO3)c1Cl [Example 28, ditrifluoroacetate]
12.6

Entry to check: CC[C@@H](C)N(CCNCCc1ccc(O)c2c1OCC(=O)N2)C(=O)CCOCCc1cccc(CCN2CCC3(CC2)CN(C(=O)c2csc(C(C)C)n2)CCO3)c1 [Example 37, ditrifluoroacetate]
10

Entry to check: O=C1COc2c(CCNCCN(C(=O)CCOCCc3cccc(CN4CCC5(CC4)CN(C(=O)c4cc6ccccc6s4)CCO5)c3)C3CCCCC3)ccc(O)c2N1 [Example 81]
251

Entry to check: CC(C)c1nc(C(=O)N2CCOC3(CCN(CCc4cccc(CCOCCC(=O)N(CCNCCc5ccc(O)c6c5OCC(=O)N6)Cc5ccccc5)c4)CC3)C2)cs1 [Example 41, ditrifluoroacetate]
20

Entry to check: CCc1nc(C(=O)N2CCOC3(CCN(Cc4cccc(CCOCCC(=O)N(CCNCCc5ccc(O)c6c5OCC(=O)N6)[C@H](C)CC)c4Cl)CC3)C2)cs1 [Example 31, ditrifluoroacetate]
20

Entry to check: COc1cccc(CN(CCNCCc2ccc(O)c3c2OCC(=O)N3)C(=O)CCOCCc2cccc(CN3CCC4(CC3)CN(C(=O)c3csc(C(C)C)n3)CCO4)c2F)c1 [Example 23, ditrifluoroacetate]
79.4

Entry to check: O=C1COc2c(CCNCCN(C(=O)CCOCCc3cccc(CN4CCC5(CC4)CN(C(=O)c4ccc(C(F)(F)F)cn4)CCO5)c3)C3CCCCC3)ccc(O)c2N1 [Example 149]
126

Entry to check: CC(C)c1ccc(C(=O)N2CCOC3(CCN(Cc4cccc(CCOCCC(=O)N(CCNCCc5ccc(O)c6c5OCC(=O)N6)C5CCCCC5)c4)CC3)C2)s1 [Example 90]
251

Entry to check: O=C1COc2c(CCNCCN(C(=O)CCOCCc3cccc(CN4CCC5(CC4)CN(C(=O)CCOc4ccccc4)CCO5)c3)C3CCCCC3)ccc(O)c2N1 [Example 165]
79.4
